- Test Target: VIP receptor of guinea pig lung membranes (guinea pig)
- Test Name: competition with 0.01 nM 125I-VIP, guinea pig lung membranes
No end group written: not given here.
Measurement Kind: IC50 (nM)
The reply should contain only the number, in nM.

Enquiry: Provide measured IC50 value, entry: HSDAVFTDNYTRLRKQMAVKKYLNSILNGGC-NH2 (also: non-radioactive ReO complexed to the chelating moiety) [ReO-complexed P916]
Return: 20

Enquiry: Provide measured IC50 value, entry: AGCHSDAVFTDNYTRLRKQMAVKKYLNSILN-NH2 [P915]
Return: 50

Enquiry: Provide measured IC50 value, entry: HSDAVFTDNYTRLRKQMAVKKYLNSILNC (C-terminal C(BAT): S-(N6,N9-bis(2-mercapto-2-methylpropyl)-6,9-diazanonan-1-yl)cysteine; C-terminal amide; non-radioactive ReO complexed to the chelating moiety) [ReO-complexed P917]
Return: 6.9

Enquiry: Provide measured IC50 value, entry: HSDAVFTDNYTRLRKQMAVKKYLNSILNKGC ((ε-K): lysine 29 linked through its ε-amino group; C-terminal amide; non-radioactive ReO complexed to the chelating moiety) [ReO-complexed P887]
Return: 20
